# System: c-Abl (mouse)
# TEST_NAME: phosphorylation enrichment, bacterial display (enrichment ratio); higher = better substrate or ligand; peptides without Tyr show the background;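 further: 11-residue human phosphosite peptides and single-mutation variants displayed on the E. coli surface, counted by deep sequencing, each peptide's frequency after selection divided by its frequency in the unselected input library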;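 further: frequency after pTyr selection over input frequency; kinase dosed for 20-30% of maximal phosphorylation in three min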
MEASURED_QUANTITY: phosphorylation enrichment
Format: numeric value only, no unit, no commentary.

Solved entries (count: 3):
NNHGNYIVRLG [ETFDH_Y172] ... 0.667
ALECLYRREKR [TEKT5_Y195_H196R] ... 0.522
RFLERYIYNPE [HLA-DPB1_Y57_R61P] ... 0.68

QUERY: For EVEPRYVVLFD [ERCC4_Y577_YF] , what is its reported phosphorylation enrichment?
RESULT: 0.777

###

# System: c-Src
# TEST_NAME: phosphorylation enrichment, bacterial display (enrichment ratio); higher = better substrate or ligand; peptides without Tyr show the background
MEASURED_QUANTITY: phosphorylation enrichment

KSEKVYTRHGV [FLOT1_Y56] ... 0.34
AGAKTYKMSMA [CPS1_Y309] ... 0.399
TTGLIYIGSHD [AASDH_Y870] ... 0.408

QUERY: Please provide the recorded phosphorylation enrichment for SLLTDCSPQLQ [OTC_Y345_Y345C] , tested on c-Src.
RESULT: 0.475

QUERY: Please provide the recorded phosphorylation enrichment for IFRASYVPFAA [RBM47_Y541_G538R_YF] , tested on c-Src.
RESULT: 0.384

QUERY: Please provide the recorded phosphorylation enrichment for EWCSPYGLTPR [GRIN3B_Y601_R598C] , tested on c-Src.
RESULT: 3.91

QUERY: Please provide the recorded phosphorylation enrichment for HNELFYEEAEH [VANGL1_Y345_YF] , tested on c-Src.
RESULT: 0.484

QUERY: Please provide the recorded phosphorylation enrichment for FPCSVYVPDEW [INSR_Y1011] , tested on c-Src.
RESULT: 1.8

###

# TARGET_SYSTEM: Jak2 (UniProt O60674)
# Sequence (O60674 whole entry, looked up): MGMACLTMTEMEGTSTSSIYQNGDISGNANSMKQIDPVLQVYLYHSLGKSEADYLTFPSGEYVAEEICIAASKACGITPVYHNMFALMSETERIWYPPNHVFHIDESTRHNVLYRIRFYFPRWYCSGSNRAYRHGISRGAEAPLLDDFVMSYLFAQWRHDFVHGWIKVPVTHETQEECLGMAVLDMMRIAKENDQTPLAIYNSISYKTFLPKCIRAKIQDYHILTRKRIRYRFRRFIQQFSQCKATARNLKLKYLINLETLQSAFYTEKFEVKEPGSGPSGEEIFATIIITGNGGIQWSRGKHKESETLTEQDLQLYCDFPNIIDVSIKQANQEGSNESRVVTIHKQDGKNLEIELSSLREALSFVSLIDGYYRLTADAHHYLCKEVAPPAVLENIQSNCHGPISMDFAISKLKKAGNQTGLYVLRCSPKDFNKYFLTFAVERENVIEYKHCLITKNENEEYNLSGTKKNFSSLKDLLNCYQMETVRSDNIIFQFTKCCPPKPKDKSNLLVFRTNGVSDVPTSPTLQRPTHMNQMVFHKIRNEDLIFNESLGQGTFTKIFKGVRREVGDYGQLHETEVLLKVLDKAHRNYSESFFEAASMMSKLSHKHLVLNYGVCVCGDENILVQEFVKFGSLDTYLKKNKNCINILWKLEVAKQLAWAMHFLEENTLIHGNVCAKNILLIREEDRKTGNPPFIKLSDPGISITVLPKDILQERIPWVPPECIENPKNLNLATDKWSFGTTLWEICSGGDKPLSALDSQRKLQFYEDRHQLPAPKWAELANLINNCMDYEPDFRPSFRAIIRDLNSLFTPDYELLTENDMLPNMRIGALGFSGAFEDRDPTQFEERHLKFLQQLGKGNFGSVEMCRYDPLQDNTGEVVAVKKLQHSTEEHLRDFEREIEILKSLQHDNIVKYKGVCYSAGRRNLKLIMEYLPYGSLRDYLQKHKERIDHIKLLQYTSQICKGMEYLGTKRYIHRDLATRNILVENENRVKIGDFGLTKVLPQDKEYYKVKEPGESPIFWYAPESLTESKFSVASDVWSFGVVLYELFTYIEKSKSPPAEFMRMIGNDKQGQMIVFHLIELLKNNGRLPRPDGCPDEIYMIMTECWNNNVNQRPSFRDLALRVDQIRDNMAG
# TEST_NAME: phosphorylation enrichment, bacterial display (enrichment ratio); higher = better substrate or ligand; peptides without Tyr show the background
Below, each entry is listed with its recorded phosphorylation enrichment.

Solved entries (count: 2):
PLFSKYWPNHI [GREB1L_Y1560_R1558S_YF] ... 0.933
VVFIKYLPEWT [PSEN1_Y240_L235V] ... 1.22

QUERY: For IDDNEYAYLKA [HNF4A_Y286] , what is its reported phosphorylation enrichment?
RESULT: 0.849

###

Below, each entry is listed with its recorded phosphorylation enrichment.
# TARGET_SYSTEM: EPHB2 (UniProt P29323)
# Sequence (P29323 whole entry, looked up): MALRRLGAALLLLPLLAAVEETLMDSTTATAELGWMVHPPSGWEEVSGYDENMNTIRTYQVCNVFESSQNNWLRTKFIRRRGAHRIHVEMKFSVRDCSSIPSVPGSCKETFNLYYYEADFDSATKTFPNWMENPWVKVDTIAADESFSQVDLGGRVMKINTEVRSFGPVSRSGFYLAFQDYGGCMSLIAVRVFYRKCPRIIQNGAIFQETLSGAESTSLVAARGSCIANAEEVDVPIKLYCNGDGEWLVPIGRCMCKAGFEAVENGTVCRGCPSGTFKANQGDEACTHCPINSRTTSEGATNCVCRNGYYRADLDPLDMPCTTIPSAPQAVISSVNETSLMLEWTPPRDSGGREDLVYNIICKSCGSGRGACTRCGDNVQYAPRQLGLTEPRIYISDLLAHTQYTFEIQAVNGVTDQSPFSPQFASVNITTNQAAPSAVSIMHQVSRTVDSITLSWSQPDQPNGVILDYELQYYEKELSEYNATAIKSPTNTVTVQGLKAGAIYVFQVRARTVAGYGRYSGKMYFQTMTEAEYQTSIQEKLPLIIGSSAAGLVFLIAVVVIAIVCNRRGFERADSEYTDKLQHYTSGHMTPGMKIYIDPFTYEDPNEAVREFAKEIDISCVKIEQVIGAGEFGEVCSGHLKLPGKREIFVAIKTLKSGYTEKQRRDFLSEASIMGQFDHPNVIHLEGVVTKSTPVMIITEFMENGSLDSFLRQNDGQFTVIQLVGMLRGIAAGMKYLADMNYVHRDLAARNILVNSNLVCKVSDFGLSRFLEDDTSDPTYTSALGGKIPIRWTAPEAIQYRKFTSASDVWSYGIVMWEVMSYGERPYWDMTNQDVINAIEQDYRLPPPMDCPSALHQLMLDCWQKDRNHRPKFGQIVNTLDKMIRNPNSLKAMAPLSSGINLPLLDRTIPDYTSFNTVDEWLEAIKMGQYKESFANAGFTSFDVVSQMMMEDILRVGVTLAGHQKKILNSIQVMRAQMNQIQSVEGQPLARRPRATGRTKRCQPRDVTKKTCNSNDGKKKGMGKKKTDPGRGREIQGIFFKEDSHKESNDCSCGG
# TEST_NAME: phosphorylation enrichment, bacterial display (enrichment ratio); higher = better substrate or ligand; peptides without Tyr show the background

KSDVMYTDWKK [ORM1_Y175_V174M] ... 0.454

Let us move to another entry and its phosphorylation enrichment.
QUERY: For `KACNPYKPPGP` , what is its reported phosphorylation enrichment?
RESULT: 0.478

###

# TARGET_SYSTEM: FGFR1 (UniProt P11362)
# Sequence (P11362 whole entry, looked up): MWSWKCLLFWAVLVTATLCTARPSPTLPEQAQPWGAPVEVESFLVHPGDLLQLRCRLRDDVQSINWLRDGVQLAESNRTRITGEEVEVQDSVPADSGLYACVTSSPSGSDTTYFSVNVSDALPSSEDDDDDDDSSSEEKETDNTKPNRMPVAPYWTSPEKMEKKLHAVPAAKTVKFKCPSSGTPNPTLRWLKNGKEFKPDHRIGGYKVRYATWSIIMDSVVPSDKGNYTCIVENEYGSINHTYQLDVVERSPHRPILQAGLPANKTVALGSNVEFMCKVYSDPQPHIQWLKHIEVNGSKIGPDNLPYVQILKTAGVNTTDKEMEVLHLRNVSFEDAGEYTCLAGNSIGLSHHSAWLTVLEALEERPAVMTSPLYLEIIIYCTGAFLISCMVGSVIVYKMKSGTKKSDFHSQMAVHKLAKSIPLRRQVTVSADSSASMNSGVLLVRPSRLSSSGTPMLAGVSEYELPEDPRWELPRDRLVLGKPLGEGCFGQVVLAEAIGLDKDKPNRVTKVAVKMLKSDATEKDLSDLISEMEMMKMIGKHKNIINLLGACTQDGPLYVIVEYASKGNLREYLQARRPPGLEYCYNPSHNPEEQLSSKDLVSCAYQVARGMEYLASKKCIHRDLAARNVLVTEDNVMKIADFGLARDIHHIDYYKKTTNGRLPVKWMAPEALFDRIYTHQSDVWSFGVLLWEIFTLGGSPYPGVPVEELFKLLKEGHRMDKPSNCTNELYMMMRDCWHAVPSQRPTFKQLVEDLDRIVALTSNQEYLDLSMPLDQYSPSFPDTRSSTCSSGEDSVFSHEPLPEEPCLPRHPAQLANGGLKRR
# TEST_NAME: phosphorylation enrichment, bacterial display (enrichment ratio); higher = better substrate or ligand; peptides without Tyr show the background
MEASURED_QUANTITY: phosphorylation enrichment
Format: numeric value only, no unit, no commentary.

Solved entries (count: 4):
FPDFVYKRIKA [DPYSL2_Y479] ... 0.495
IDDNQYAFLKA [HNF4A_Y286_E285Q_YF] ... 2.5
GFQPDYGQPAG [SYP_Y278_YF] ... 0.478
GIVKAYYVHAR [AIPL1_Y267_R270H] ... 0.482

QUERY: For LCHELYNTIRD [PBRM1_Y54_V49L] , what is its reported phosphorylation enrichment?
RESULT: 0.973

QUERY: For YVGGFYGGCNE [CTSC_Y352] , what is its reported phosphorylation enrichment?
RESULT: 0.639

QUERY: For AVISVYDLVAF [PSEN1_Y256_V261F] , what is its reported phosphorylation enrichment?
RESULT: 0.72
